Source of measurements: PubChem BioAssay (NCI)

Tested on: SF-539 CNS
Assay: NCI tumour cell line growth inhibition, 48 h
measurement_kind: TGI (µM)

# compound, units_of_measure, readout_relation, quantitative_result
rows = [
    ("CC[C@]12C=CCN3CC[C@@]4(c5ccc(OC)cc5N(C)[C@H]4[C@@](O)(C(=O)OC)[C@@H]1OC(C)=O)[C@@H]32", "µM", ">", 200),
    ("CSc1ccc(C2C(Cl)C(=O)N2NC(=O)c2c(Cl)c(Cl)c(Cl)c(Cl)c2-c2nc3ccccc3[nH]2)cc1 (stereo not drawn)", "µM", "=", 53.4),
    ("CC(C)CCN=c1cc2n(-c3ccc(Cl)cc3)c3ccccc3nc-2cc1Nc1ccc(Cl)cc1", "µM", "=", 32.1),
    ("CCCCn1c(-c2ccc(C(=O)O/N=C(\\N)c3ccc(OC)cc3)cc2)nc(-c2ccccc2)c1-c1ccccc1", "µM", "=", 3.24),
    ("O=C(CSc1nnc(Cc2ccccc2)o1)Nc1cccc([N+](=O)[O-])c1", "µM", ">", 100),
    ("CC#CC(=O)Nc1ccccc1CC(c1c[nH]c2ccccc12)c1c[nH]c2ccccc12", "µM", "=", 37.2),
    ("COc1cccc(NCc2nnc(Nc3ccc(Cl)cc3)c3ccccc23)c1", "µM", "=", 6.56),
    ("O=C(CC(=O)N(C(=O)c1ccccc1)c1ccc(Cl)cc1)N/N=C\\c1cc(N=Nc2ccccc2Cl)ccc1O", "µM", ">", 100),
]
